Tested on: chloroquine-resistant (W2) strain of Plasmodium falciparum
assay-summary: Antimalarial inhibitory activity, chloroquine-resistant
Type: cell-based
study-conditions: P. falciparum W2 strain
endpoint-name: IC50 (nM)

molecule	unit-descriptor	test-value
COc1ccc(C2(O)N=C3N=CC=C4c5ccccc5N=C2N43)cc1 (stereo not shown)	nM	1100
